- measured.on: T1, histidine-labeled cynomolgus monkey 4-1BB protein (cynomolgus monkey)
- T1 construct: also called Monkey 4-1BB protein antigen (histidine-labeled); cynomolgus monkey 4-1BB protein and his tag (Acrobiosystem, #41B-052H4)
- measurement.notes: BLI Octet RED96, AHC sensor, his-tagged antigen

binder	Response
PR001759 (antibody, human IgG1, V domains shown, HCAb, heavy chain only, human IgG1 Fc; also called 1016P0010D7) VH: EVQLLESGGGLVQPGGSLRLSCAASGFTFSSYAMSWFRQPPETGLQWVSSIGGSGGDTYYADSVKGRFTISRDNSKNTLYLQMNSLRAEDTAVYYCAKEGSNGTDDNYYDVDVWGQGTTVTVSS	0.283
PR001840 (antibody, human IgG1, V domains shown, HCAb, heavy chain only, human IgG1 Fc; also called 1016P0037D2) VH: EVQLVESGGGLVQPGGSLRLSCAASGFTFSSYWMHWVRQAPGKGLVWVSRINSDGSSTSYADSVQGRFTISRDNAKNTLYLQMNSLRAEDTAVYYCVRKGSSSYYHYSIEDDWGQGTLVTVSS	0.203
PR001760 (antibody, human IgG1, V domains shown, HCAb, heavy chain only, human IgG1 Fc; also called 1016P0011G10) VH: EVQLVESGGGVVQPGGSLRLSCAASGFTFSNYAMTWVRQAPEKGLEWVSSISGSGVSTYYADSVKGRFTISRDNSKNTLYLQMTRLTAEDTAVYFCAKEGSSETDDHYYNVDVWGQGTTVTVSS	0.178
PR001838 (antibody, human IgG1, V domains shown, HCAb, heavy chain only, human IgG1 Fc; also called 1016P0030B2) VH: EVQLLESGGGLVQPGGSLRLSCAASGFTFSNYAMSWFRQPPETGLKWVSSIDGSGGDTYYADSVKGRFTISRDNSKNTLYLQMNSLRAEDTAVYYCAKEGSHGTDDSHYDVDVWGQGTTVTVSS	0.224
PR001836 (antibody, human IgG1, V domains shown, HCAb, heavy chain only, human IgG1 Fc; also called 1016P0020G4) VH: EVQLLESGGGLVQPGGSLRLSCAASGFIFSNFAMTWVRQPPEKGLKWVSSINGSGFNTYYTDSVKGRFTISRDNSRNTLYLQMNRLTAEDTAVYFCAKEGSSETDDHYYNVDVWGQGTTVTVSS	0.25
PR001758 (antibody, human IgG1, V domains shown, HCAb, heavy chain only, human IgG1 Fc; also called 1016P0010B11) VH: EVQLLESGGGLVQLGGSLRLSCAASGFTFSRYAMTWVRQAPEKGLEWVSSISGSGDDTYYGDSVKGRFTISRDNSQNTVYLQMNSLRAEDTAVYFCAKEKAGTTGDYYYNVDVWGQGTTVTVSS	0.274
PR001833 (antibody, human IgG1, V domains shown, HCAb, heavy chain only, human IgG1 Fc; also called 1016P0016F8) VH: EVQLLESGGGLVQPGGSLRLSCAASGFTFSSYAMSWVRQAPEKGLEWVSSISGSGGSTFYADSVKGRFTISRDNSKNTLYLQMNSLRAEDTAVYFCAKEGATETDDYHFNTDVWGQGTTVTVSS	0.273
PR001830 (antibody, human IgG1, V domains shown, HCAb, heavy chain only, human IgG1 Fc; also called 1016P0014G8) VH: EVQLLESGGGLVQPGGSLRLSCTASGFTFSNYAMSWVRQAPEKGLEWVSSISGSGGSTFYADSVKGRFTISRDNSKNTLYLQMNSLRAEDTAVYFCAKEGSSETDDHYYNVDVWGQGTTVTVSS	0.222
